# maps each entry to its pKd
Subject Of Test: T1, PUF4 RNA-binding domain (Saccharomyces cerevisiae, UniProt P25339 537-888)
T1 sequence: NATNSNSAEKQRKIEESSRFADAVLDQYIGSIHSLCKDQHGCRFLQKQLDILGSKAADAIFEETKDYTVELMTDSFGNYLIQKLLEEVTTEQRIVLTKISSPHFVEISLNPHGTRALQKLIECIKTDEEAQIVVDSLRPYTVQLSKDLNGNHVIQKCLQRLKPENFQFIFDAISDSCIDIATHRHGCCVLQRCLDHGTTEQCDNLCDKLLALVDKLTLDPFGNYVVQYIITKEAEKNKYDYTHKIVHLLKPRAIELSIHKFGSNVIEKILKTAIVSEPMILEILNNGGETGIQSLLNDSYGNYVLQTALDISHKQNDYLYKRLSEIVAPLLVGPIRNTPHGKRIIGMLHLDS
Test Name: Mg; RNA-MaP; 20 mM Na-HEPES pH 7.4, 30 mM KOAc, 0.75 mM MgCl2, 0.1% Tween-20, 5% glycerol, 0.1 mg/mL BSA, 2 mM DTT; 25 C; 0.0125-409.6 nM protein
Assay Context: tags: N-His6-TEV cleaved; C-SNAP kept, Cy3B-labelled; label: tethered on chip by stalled RNA polymerase
pKd: −log10 of the molar value.
Measured Parameter: pKd

Binder: UCUCUUUCCCGUAUUAUUAUCUCUU (ssRNA) [Ie_S1_P5E.1_K5.1_C5.1_H5.1_[+1CCC]_A5.1_F5.1_T5.1]
Observed: 5.87

Binder: Ic_S4_P5E.1_K5.1_C5.1_H5.1_A5.1_[T5C]_[T6A]_[A7T]_F5.1_[T8C]_[T9C]_T5.1 (ssRNA) RNA: UUUGACAACUGAUCGUUCUUUCUUGUACAUCCAUUCUUUCUCGAUCAGUUGUCUUU
Observed: 7.69

Binder: UCUCUUUGUACUUUUAUUAUCUCUU (ssRNA) [Ie_S1_P5E.1_K5.1_C5.1_H5.1_[+4CTT]_A5.1_F5.1_T5.1]
Observed: 8.37

Entry source: paper PMC9352680
